Target: T1, extracellular domain of human BCMA (human, UniProt Q02223 1-54)
T1 construct: amine-linked to Octet AR2G tips; also called hsBCMA; BCMA (human)
T1 sequence: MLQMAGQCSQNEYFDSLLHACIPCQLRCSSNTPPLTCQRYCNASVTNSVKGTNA
Assay: Octet BLI; Fab 200 nM
Reported Property: Kd (nM)
# output: bare number, implied unit nM

[[record]]
binder = "AB200-(2Vk31)_R2-VH-v33 (Fab, V domains shown) VH: QVQLVQSGAEVKKPGSSVKVSCKASGGTFSNYWIHWVRQAPGQGLEWMGATYRSHSDTNYNEKFKSRVTITADKSTSTAYMELSSLRSEDTAVYYCARGAIYHGYDVIENWGQGTLVTVSS VL: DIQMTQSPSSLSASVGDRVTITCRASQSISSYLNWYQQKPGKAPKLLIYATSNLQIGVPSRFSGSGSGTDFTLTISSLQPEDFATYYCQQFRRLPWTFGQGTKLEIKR"
readout_number = 46


# evaluate next
Query block: Reported Kd, binder AB200-(2Vk31)_R2-VH-v34 (Fab, V domains shown) VH: QVQLVQSGAEVKKPGSSVKVSCKASGGTFSNYWIHWVRQAPGQGLEWMGATYRSQSDTYYAQKFKSRVTITADKSTSTAYMELSSLRSEDTAVYYCARGAIYHGYDVIENWGQGTLVTVSS VL: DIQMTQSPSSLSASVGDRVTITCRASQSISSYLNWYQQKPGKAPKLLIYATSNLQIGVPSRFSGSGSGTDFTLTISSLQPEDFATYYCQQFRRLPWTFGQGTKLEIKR : ____
Result block: 5.13
